# Details: in 2-ethoxyethanol, 303.15 K

{"columns": ["Compound", "solubility (mole fraction)"],
 "data": [
  ["CC(=O)NC1(C)CCC2CC1C(C)=NC2(C)C (configuration not stated)", 0.00217],
  ["CC1(N=C(O)c2ccccc2)CCC2CC1C(c1ccccc1)=[NH+]C2(C)C.[O-][Cl+3]([O-])([O-])[O-] (configuration not stated)", 0.00297]
]}

----------
# Details: in isopropanol, 318.15 K
Measured Metric: solubility (mole fraction)

{"columns": ["Molecule", "Value Measured"],
 "data": [
  ["CC1(N=C(O)c2ccccc2)CCC2CC1C(c1ccccc1)=[NH+]C2(C)C.[O-][Cl+3]([O-])([O-])[O-] (configuration not stated)", 0.00199],
  ["CC(=O)NC1(C)CCC2CC1C(C)=NC2(C)C (configuration not stated)", 0.00243]
]}
